# test.description: chemical genetic growth profiling, strain panel (AID 1159580);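 further: tested at 20 µM; growth read once vehicle control cultures reached saturation at 30 °C; 1 = growth at the plate median or of vehicle wells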
# cond: S. cerevisiae deletion strains, growth OD, locus YDL028C, strain MPS1, active compounds read low
Among all 5,500 compounds or so, about 2,000 (36%) were called active. Roughly 18% stayed inconclusive and do not appear here. Some of the results follow.
outcome.measure: normalized growth

1. COCCOc1ccccc1NC(=S)SCCSC(=S)Nc1ccccc1OCCOC 0.98
2. O=C(CO/N=C\c1ccc(Cl)cc1Cl)NNC(=S)Nc1cc(Cl)ccc1Cl 1
3. N/C(=N/OC(=O)c1ccc(Cl)cc1)c1ccc(F)cc1F 0.916

###

# test.description: chemical genetic growth profiling, strain panel (AID 1159580)
# cond: S. cerevisiae deletion strains, growth OD, locus YPL106C, strain sse1
About 2,000 (36%) of roughly 5,500 compounds were called active. Inconclusive results (about 18%) are left out. No stated cut-off is given here; in the data, active means normalized growth mostly below about 0.91 (no sharp cut-off); inconclusive means no clear call, values can overlap the other calls; inactive means mostly above about 0.92. This is one part of the list.
Outcome codes: T = active, F = inactive

compound	category
Nc1nc(N)c2nc(CNc3ccc(C(=O)NC(CCC(=O)O)C(=O)O)cc3)cnc2n1 (configuration not stated)	F
O=C(O)c1cc(=O)c2c(OCC(O)COc3cccc4oc(C(=O)O)cc(=O)c34)cccc2o1	F
O=C(O)CNCP(=O)(O)O	F
NC(=O)c1ccc(N)nc1	F
c1ccc2[nH]c(-c3cscn3)nc2c1	F
c1cc2c(cc1[C@H]1OC[C@H]3[C@@H]1CO[C@H]3c1ccc3c(c1)OCO3)OCO2	F
CCCNC(C)C(=O)Nc1ccccc1C (configuration not stated)	F
O=C(O)CCCCC1SCC2NC(=O)NC21 (configuration not stated)	F
O=c1cccc2n1C[C@H]1CNCC2C1	F
CC(=O)OCC(=O)[C@@]12OC(C)(C)O[C@@H]1CC1C3C[C@H](F)C4=CC(=O)C=C[C@]4(C)[C@@]3(F)[C@@H](O)C[C@@]12C (some centres not stated)	F
CC12CCC3C(CC=C4CC(O)CCC43C)C1CCC2=O (configuration not stated)	T
OC1CCCCC1N1CCC(c2ccccc2)CC1 (configuration not stated)	F
CCCCC(CC)CN=C(N)NC(N)=NCCCCCCN=C(N)NC(N)=NCC(CC)CCCC (configuration not stated)	T
CCN(CC)CCOC(=O)C(Cc1cccc2ccccc12)CC1CCCO1 (configuration not stated)	F
C=CCN1CC[C@]23c4c5ccc(O)c4OC2C(=O)CC[C@@]3(O)[C@H]1C5 (some centres not stated)	F
CCCN(CCC)CCc1cccc2c1CC(=O)N2	F
O=C(O)c1ccc2c(c1)OCO2	F
Nc1nc2c(c(=O)[nH]1)N(C=O)C(CNc1ccc(C(=O)N[C@@H](CCC(=O)O)C(=O)O)cc1)CN2 (some centres not stated)	F
N[C@@H](CCC(=O)N[C@@H](CCSC(CC(=O)O)C(=O)O)C(=O)NCC(=O)O)C(=O)O (some centres not stated)	F
CC(=O)O[C@H]1CC[C@@]2(C)C(=CCC3C2CC[C@@]2(C)C3CC[C@@H]2C(C)CCCC(C)C)C1 (some centres not stated)	F
COC(=O)[C@H]1[C@H]2C[C@@H]3c4[nH]c5cc(OC)ccc5c4CCN3C[C@H]2C[C@@H](OC(=O)c2cc(OC)c(OC)c(OC)c2)[C@@H]1OC	F
CCOC(N)=O	F

###

// reported normalized growth per item
# test.description: chemical genetic growth profiling, strain panel (AID 1159580)
# cond: S. cerevisiae deletion strains, growth OD, locus YHR142W, strain chs7, active compounds read low
About 2,000 (36%) of roughly 5,500 compounds were called active. Inconclusive results (about 18%) are left out. The list shows a part of the results.
outcome.measure: normalized growth

compound	outcome.measure	reported.result
O=C(/C=C/c1ccc(O)c(O)c1)O[C@@H]1C[C@](O)(C(=O)O)C[C@@H](O)[C@H]1O	normalized growth	0.975
N[C@@H](CCC(=O)N[C@@H](CCSC(CC(=O)O)C(=O)O)C(=O)NCC(=O)O)C(=O)O (stereo partly specified)	normalized growth	1
Oc1ccc(/C=C/c2cc(O)cc(O)c2)cc1	normalized growth	0.987
CN(Cc1cc(Br)cc(Br)c1N)C1CCCCC1	normalized growth	1.06
CC[C@@H]1[C@@H](O)N2C3C[C@H]1C1C(O)[C@]4(C[C@@H]12)c1ccccc1N(C)[C@@H]34 (stereo partly specified)	normalized growth	1.1
COc1ccccc1OCC(O)CN1CCN(CC(=O)Nc2c(C)cccc2C)CC1 (stereo unspecified)	normalized growth	1.02
C=CCc1cc(OC)c2c(c1OC)OCO2	normalized growth	0.723
COc1ccc(-c2cc(C(F)F)nn2-c2ccc(S(N)(=O)=O)cc2)cc1F	normalized growth	0.999
CCCc1cc(OC)c2c(c1)OCO2	normalized growth	0.974
OC/C=C/c1ccc(O)c(O)c1	normalized growth	1
CC1=CC(=O)CC(C)(C)C1(O)/C=C/C(C)=C\C(=O)O (stereo unspecified)	normalized growth	1.02

###

# test.description: chemical genetic growth profiling, strain panel (AID 1159580);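 further: tested at 20 µM; growth read once vehicle control cultures reached saturation at 30 °C; 1 = growth at the plate median or of vehicle wells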
# cond: S. cerevisiae deletion strains, growth OD, locus YNL209W, strain ssb2, active compounds read low
The whole screen tested about 5,500 compounds, of which about 2,000 (36%) were called active. Inconclusive results (about 18%) are left out. The list shows a part of the results.
Classify: Met when normalized growth is strictly less than 1; Not met when normalized growth is not.

compound	category
COc1ccc(/C=C/C(=O)c2cc(O)ccc2O)cc1	Met
COc1ccc(C=CC(=O)c2ccc(O)cc2O)cc1OC	Met
O=C(O)CNCP(=O)(O)O	Not met

###

# test.description: chemical genetic growth profiling, strain panel (AID 1159580);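 further: tested at 20 µM; growth read once vehicle control cultures reached saturation at 30 °C; 1 = growth at the plate median or of vehicle wells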
# cond: S. cerevisiae deletion strains, growth OD, locus YMR223W, strain ubp8, active compounds read low
The campaign covered roughly 5,500 compounds. About 2,000 (36%) were called active. Not shown: some 18% with an inconclusive outcome. The list shows a part of the results.
// reported normalized growth per item

molecule	normalized growth
CC(=O)Oc1cc(C)c2c(c1C(OC(C)=O)OC(C)=O)Oc1c(c(C)c(OC(C)=O)c3c1C(OC(C)=O)OC3=O)OC2=O (stereo unspecified)	0.989
O=C(O)c1cc(=O)c2c(OCC(O)COc3cccc4oc(C(=O)O)cc(=O)c34)cccc2o1	1.03
O=C(O)CNCP(=O)(O)O	1.01
OCC(S)CS (stereo unspecified)	0.999
COc1cc(C)c2c(c1C=O)Oc1c(c(C)c(O)c3c1C(O)OC3=O)OC2=O (stereo unspecified)	1
CCOC(N)=O	1.02

###

// reported normalized growth per item
# test.description: chemical genetic growth profiling, strain panel (AID 1159580);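 further: tested at 20 µM; growth read once vehicle control cultures reached saturation at 30 °C; 1 = growth at the plate median or of vehicle wells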
# cond: S. cerevisiae deletion strains, growth OD, locus YKL160W, strain elf1, active compounds read low
The whole screen tested about 5,500 compounds, of which about 2,000 (36%) were called active. Another 18% or so got no clear call; they are omitted. This is one part of the list.
outcome.measure: normalized growth

molecule	reported.result
CCOc1ccc2c(c1)C(C)=CC(C)(C)N2	0.996
COc1ccc(CN(CCN(C)C)c2ncccn2)cc1	1.02
O=C(O)c1cc(O)c(O)c(O)c1	1.05
C=CCN1CC[C@]23c4c5ccc(O)c4OC2C(=O)CC[C@@]3(O)[C@H]1C5 (some centres undefined)	0.975
Nc1c(Br)cc(Br)cc1CNC1CCC(O)CC1 (centres undefined)	1
CN(Cc1cnc2nc(N)nc(N)c2n1)c1ccc(C(=O)NC(CCC(=O)O)C(=O)O)cc1 (centres undefined)	0.94
CCOC(N)=O	0.994
O=C(O)c1cc(=O)c(O)c2c(O)c(O)ccc2c1	1.02
Nc1nc2c(c(=O)[nH]1)N(C=O)C(CNc1ccc(C(=O)N[C@@H](CCC(=O)O)C(=O)O)cc1)CN2 (some centres undefined)	0.972
CCOC(=O)C1=C[C@]2(CC)CCCN3CCc4c(n1c1ccccc41)[C@@H]32	1.03
O=C1O[C@@H](CO)[C@H](O)[C@@H](O)[C@@H]1O	1.02
COc1cc(C)c2c(c1C=O)Oc1c(c(C)c(O)c3c1C(O)OC3=O)OC2=O (centres undefined)	1.03
C[C@@H]1CC2C3CCC4=CC(=O)C=C[C@]4(C)[C@@]3(F)[C@@H](O)C[C@]2(C)[C@@]1(O)C(=O)COP(=O)(O)O (some centres undefined)	0.965
Nc1ccc(S(=O)(=O)Nc2nccs2)cc1	1.02
OC/C=C/c1ccc(O)c(O)c1	1
CC1(C)C2CC(=O)O[C@@]3(C)C4=CC(=O)O[C@@H](c5ccoc5)[C@]4(C)CCC3[C@@]2(C)C=C[C@H]1O (some centres undefined)	1.02
COP(=S)(OC)Oc1ccc(SC)c(C)c1	0.999
Nc1nccs1	0.98
O=C(O)c1cc(=O)c(O)c2c(O)c(O)c(O)cc2c1	0.777
Oc1ccc(/C=C/c2cc(O)cc(O)c2)cc1	1
c1cc2c(cc1[C@H]1OC[C@H]3[C@@H]1CO[C@H]3c1ccc3c(c1)OCO3)OCO2	0.878
COS(C)(=O)=O	1
c1ccc(-c2ccc(C(c3ccccc3)n3ccnc3)cc2)cc1 (centres undefined)	0.0739
CC1=C(/C=C/C(C)=C/C=C/C(C)=C/C=C/C=C(C)/C=C/C=C(C)/C=C/C2=C(C)CCCC2(C)C)C(C)(C)CCC1	0.927
